Can you tell me shrunken log2 fold change for the items I'm about to list?
Test system: Escherichia coli TOP10;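 note: peptides expressed intracellularly from a pBAD plasmid library in pooled LB shake-flask culture, induced with 0.3% L-arabinose, DNA abundance read by NGS, three biological replicates, DESeq2 with apeglm shrinkage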
test_description: shrunken log2 fold change of peptide-encoding DNA abundance (4.5 h post-induction vs induction); higher = less antimicrobial activity (less host growth inhibition)
particulars: time post-induction: 4.5 h; library: site-saturation at positions 5, 18, 19, 20
Give bare numbers.

| residue_sequence | assay_system | shrunken log2 fold change |
| --- | --- | --- |
| RRIRQRPPRLPRPRPRPPQLPRP | Escherichia coli TOP10 | 0.424 |
| RRIRKRPPRLPRPRPRPIDPPRP | Escherichia coli TOP10 | -0.0828 |
| RRIRSRPPRLPRPRPRPWGKPRP | Escherichia coli TOP10 | -0.109 |
| RRIRNRPPRLPRPRPRPVTTPRP | Escherichia coli TOP10 | 0.171 |
| RRIRFRPPRLPRPRPRPQRTPRP | Escherichia coli TOP10 | -0.101 |
| RRIRIRPPRLPRPRPRPEQNPRP | Escherichia coli TOP10 | -0.204 |

Kindly give each listed record's shrunken log2 fold change.
1. RRIRRRPPRLPRPRPRPANVPRP
2. RRIRFRPPRLPRPRPRPPWMPRP
3. RRIRMRPPRLPRPRPRPQNFPRP
4. RRIRFRPPRLPRPRPRPLICPRP
5. RRIRVRPPRLPRPRPRPLICPRP

Resp:
1. -0.15
2. 0.355
3. 0.0982
4. -0.286
5. -0.0443

Below are some sequences; for each one, tell me its shrunken log2 fold change.
1. RRIRCRPPRLPRPRPRPCVFPRP
2. RRIRTRPPRLPRPRPRPQLRPRP
3. RRIRERPPRLPRPRPRPHMHPRP
4. RRIRMRPPRLPRPRPRPDMYPRP
5. RRIRMRPPRLPRPRPRPVADPRP
6. RRIRERPPRLPRPRPRPGPSPRP

Resp:
1: -0.0388; 2: -0.12; 3: -0.687; 4: -0.138; 5: 3; 6: -0.109

Could you tell me shrunken log2 fold change for each of these sequences? They are listed below.
1. RRIRGRPPRLPRPRPRPPQTPRP
2. RRIRKRPPRLPRPRPRPTPAPRP
3. RRIRNRPPRLPRPRPRPPGNPRP

Resp:
1: 1.31; 2: 1.41; 3: 0.532

Need shrunken log2 fold change for each of these sequences.
1. RRIRVRPPRLPRPRPRPECLPRP
2. RRIRDRPPRLPRPRPRPQWRPRP
3. RRIRERPPRLPRPRPRPMKPPRP
4. RRIRQRPPRLPRPRPRPIARPRP
5. RRIRDRPPRLPRPRPRPQPKPRP
6. RRIRVRPPRLPRPRPRPIICPRP
7. RRIRYRPPRLPRPRPRPYDTPRP
8. RRIRPRPPRLPRPRPRPTLNPRP

Resp:
[0.0466, 0.21, -0.0018, -0.0171, 0.026, -0.448, -0.149, 0.0863]

Hey, can you go through the list below and give me shrunken log2 fold change for every item?
1. RRIRTRPPRLPRPRPRPNECPRP
2. RRIRARPPRLPRPRPRPKFYPRP
3. RRIRFRPPRLPRPRPRPVFMPRP
4. RRIRTRPPRLPRPRPRPKYVPRP
5. RRIRARPPRLPRPRPRPVQSPRP

Resp:
1. -0.0286
2. -0.214
3. -0.0805
4. 0.0339
5. 0.14

Batch: shrunken log2 fold change for all items listed.
1. RRIRPRPPRLPRPRPRPNHWPRP
2. RRIRMRPPRLPRPRPRPEHDPRP
3. RRIRFRPPRLPRPRPRPNWWPRP
4. RRIRQRPPRLPRPRPRPMHNPRP
5. RRIRCRPPRLPRPRPRPMAVPRP
6. RRIRDRPPRLPRPRPRPPLHPRP
7. RRIRMRPPRLPRPRPRPHYCPRP
8. RRIRCRPPRLPRPRPRPMLQPRP

Resp:
-0.0328
1.62
-0.0248
-0.28
0.0112
0.177
-0.116
0.0596

Look up shrunken log2 fold change for the entries below, preserving their order.
1. RRIRTRPPRLPRPRPRPNIQPRP
2. RRIRKRPPRLPRPRPRPEHPPRP
3. RRIRQRPPRLPRPRPRPHRTPRP
4. RRIRIRPPRLPRPRPRPRLCPRP
5. RRIRGRPPRLPRPRPRPVPCPRP
6. RRIRTRPPRLPRPRPRPEHVPRP
7. RRIRERPPRLPRPRPRPLYEPRP

Resp:
1. -0.586
2. 0.822
3. -0.0723
4. 0.0776
5. 0.463
6. 0.0823
7. -1.24

Please supply shrunken log2 fold change for each of the following items, keeping them in order.
1. RRIRDRPPRLPRPRPRPHWCPRP
2. RRIRARPPRLPRPRPRPIWWPRP
3. RRIRKRPPRLPRPRPRPFEFPRP
4. RRIRVRPPRLPRPRPRPKIYPRP
5. RRIRPRPPRLPRPRPRPNEWPRP
6. RRIRTRPPRLPRPRPRPHVIPRP

Resp:
1. -0.116
2. -0.00662
3. 0.0169
4. -0.309
5. -0.203
6. -0.192

Req: Give shrunken log2 fold change (Escherichia coli TOP10) of the following sequence: RRIRVRPPRLPRPRPRPEYIPRP
Resp: -0.00622
